Target: T1, shFcRn (soluble human FcRn) (human, UniProt P55899 24-297; P61769 21-119)
T1 construct: extracellular domain; Printed only as 'soluble human FcRn'; also called hFcRn (immobilized on a chip)
T1 sequence (P55899 24-297 limits assumed, chain 1 of 2): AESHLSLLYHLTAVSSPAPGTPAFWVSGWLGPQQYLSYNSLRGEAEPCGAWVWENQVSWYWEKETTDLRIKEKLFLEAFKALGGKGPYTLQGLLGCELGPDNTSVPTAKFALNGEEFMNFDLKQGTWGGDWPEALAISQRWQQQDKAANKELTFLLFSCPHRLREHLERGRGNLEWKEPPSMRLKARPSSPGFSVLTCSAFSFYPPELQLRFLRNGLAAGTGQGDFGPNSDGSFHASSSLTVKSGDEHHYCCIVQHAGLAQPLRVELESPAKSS
T1 sequence (P61769 21-119 limits assumed, chain 2 of 2): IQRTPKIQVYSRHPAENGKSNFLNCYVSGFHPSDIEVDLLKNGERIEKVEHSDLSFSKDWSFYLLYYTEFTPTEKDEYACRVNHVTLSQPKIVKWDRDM
Experiment: SPR, shFcRn immobilized on chip, antibody as analyte, pH 6.0;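 further: kinetics fitted with a 1:1 Langmuir model, association 200 s and dissociation 600 s, samples diluted in PBST, double-referenced signals, values averaged across three shFcRn-coated cells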
Catalogue of kon readings, one per entry.

| BINDER | UNITS TEXT | kon |
| --- | --- | --- |
| HL161AN variant No. 12 (LC:N25Q, HC:C32S) (antibody, V domains shown, also called HL161ANQ; #12 (HL161ANQ)) VL: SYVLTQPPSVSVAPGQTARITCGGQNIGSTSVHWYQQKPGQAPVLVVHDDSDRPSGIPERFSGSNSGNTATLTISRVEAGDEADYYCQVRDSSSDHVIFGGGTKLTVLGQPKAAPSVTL VH: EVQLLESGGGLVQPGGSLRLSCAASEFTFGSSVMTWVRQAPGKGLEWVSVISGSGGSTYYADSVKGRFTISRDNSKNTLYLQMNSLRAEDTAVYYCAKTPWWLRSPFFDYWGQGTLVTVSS | M⁻¹ s⁻¹ | 3.02e+06 |
| HL161AN variant No. 14 (LC:N25Q, HC:Q82S) (antibody, human IgG1, V domains shown, Variable domains only) VL: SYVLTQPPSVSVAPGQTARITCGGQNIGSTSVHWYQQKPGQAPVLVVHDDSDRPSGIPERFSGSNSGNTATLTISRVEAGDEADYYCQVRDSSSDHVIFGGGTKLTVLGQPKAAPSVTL VH: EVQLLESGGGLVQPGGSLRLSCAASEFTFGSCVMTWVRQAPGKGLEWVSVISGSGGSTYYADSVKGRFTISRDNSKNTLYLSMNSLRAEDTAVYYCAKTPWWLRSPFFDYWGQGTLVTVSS | M⁻¹ s⁻¹ | 2.68e+06 |
